Hello, the source for this data is PubChem BioAssay AID651658, in case you need it.

tested.on: Fibroblast growth factor 22 (Homo sapiens)
protocol.description: binders of human FGF22 protein, primary screen, FGF22 synaptogenesis inhibitor project, biophysical, thermal shift, single point (AID 651658)
run.parameters: recombinant FGF22 thermal shift, SYPRO orange fluorescence; at 9.99 µM; active compounds read high; percent of sucrose octasulfate shift, DMSO zero
In all, about 340,000 compounds went through this assay and about 5,100 (1.5%) were called active. The sample as a whole holds a higher share of actives than the screen did.
Below: a set of entries, each annotated with reported activity (Tm shift, normalised).

# smiles.input, units.label, activity (Tm shift, normalised)
measured = [
    ("C[C@H]1CN([C@@H](C)CO)C(=O)Cc2cc(NC(=O)Cn3cnnn3)ccc2O[C@H]1CN(C)Cc1ccc(C(=O)O)cc1", "%", -0.049),
    ("O=C(COC(=O)CCc1c[nH]c2ccccc12)Nc1cccc(Cl)c1", "%", 0.175),
    ("CCN(CC)S(=O)(=O)c1ccc(Cl)c(C(=O)NCCN2CCOCC2)c1", "%", -0.116),
    ("Cc1ccccc1NC(=O)NC1(C(=O)N2CCCC2)CCCCC1", "%", 43.5),
    ("C[C@H]1CN([C@@H](C)CO)C(=O)Cc2cc(NC(=O)Cc3cn(C)c4ccccc34)ccc2O[C@H]1CN(C)Cc1ccccc1", "%", 1.01),
    ("C[C@@H]1CN([C@H](C)CO)C(=O)Cc2cc(NC(=O)Cn3cnnn3)ccc2O[C@H]1CN(C)Cc1ccc(C(F)(F)F)cc1", "%", 1.38),
]

###

tested.on: Fibroblast growth factor 22 (Homo sapiens) (UniProt Q9HCT0)
Sequence (Q9HCT0 whole entry, looked up): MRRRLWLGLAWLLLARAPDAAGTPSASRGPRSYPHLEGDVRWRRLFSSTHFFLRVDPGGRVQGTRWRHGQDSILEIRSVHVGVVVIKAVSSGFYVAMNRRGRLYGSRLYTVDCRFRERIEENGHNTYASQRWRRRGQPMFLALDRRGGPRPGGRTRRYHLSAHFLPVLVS
protocol.description: binders of human FGF22 protein, primary screen, FGF22 synaptogenesis inhibitor project, biophysical, thermal shift, single point (AID 651658)
run.parameters: recombinant FGF22 thermal shift, SYPRO orange fluorescence; at 9.99 µM; percent of sucrose octasulfate shift, DMSO zero
In all, about 340,000 compounds went through this assay and about 5,100 (1.5%) were called active.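 Rule for the calls: active = mean Tm shift, scaled 0 neutral to 100 positive control, at about 1.3% or above, every replicate too (limit read from the data); inconclusive = no clear call, values can overlap the other calls; inactive = the rest.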 The full list was thinned out, with actives kept by preference.
Possible outcomes: active, inactive

# smiles.input, group
measured = [
    ("COc1cccc(NC(=O)C/C(C)=N/NC(=O)C2CCCCC2)c1", "inactive"),
    ("Cc1ccc(S(=O)(=O)Nc2nc3ccccc3s2)cc1[N+](=O)[O-]", "active"),
    ("O=C(OCc1cc(=O)n2ccsc2n1)C1(c2ccc(Cl)cc2)CC1", "inactive"),
    ("Cc1ccc(S(=O)(=O)N(Cc2ccccc2)c2ccccn2)cc1[N+](=O)[O-]", "inactive"),
    ("COc1cccc(CNC(=O)c2n[nH]c3ccccc23)c1", "inactive"),
    ("O=C(Nc1c2c(nc3ccccc13)CCCC2)c1ccccc1Br", "active"),
    ("COc1ccc(S(=O)(=O)N2CC[C@@H]3[C@H](CO)Nc4ccc(C#Cc5cccc(OC)c5)cc4[C@@H]32)cc1", "inactive"),
    ("CCc1ccccc1NC(=O)CN1CCN(C(=O)c2cc(C3CC3)nn2-c2ccccc2)CC1", "active"),
    ("Cc1ccc(-c2ccc3c(c2)O[C@H](CN(C)C(=O)Nc2ccc(C(F)(F)F)cc2)[C@@H](C)CN([C@H](C)CO)S3(=O)=O)cc1", "inactive"),
    ("Cc1ccc(S(=O)(=O)N(C)C[C@@H]2Oc3cc(C4=CCCC4)ccc3S(=O)(=O)N([C@@H](C)CO)C[C@@H]2C)cc1", "active"),
    ("CC(=O)N(C)C[C@@H]1Oc2cc(-c3ccncc3)ccc2S(=O)(=O)N([C@@H](C)CO)C[C@H]1C", "inactive"),
    ("COc1ccc(NC(=O)N(C)C[C@H]2Oc3cc(-c4ccncc4)ccc3S(=O)(=O)N([C@@H](C)CO)C[C@H]2C)cc1", "inactive"),
    ("O=C(OCc1cc(Cl)ccc1OC(F)F)c1cccnc1", "active"),
    ("C[C@H](CO)N1C[C@H](C)[C@H](CN(C)C(=O)Nc2ccc3c(c2)OCO3)Oc2cc(C#Cc3ccncc3)ccc2S1(=O)=O", "inactive"),
    ("CCc1ccccc1NC(=O)CN(C)C(=O)c1cc(C2CC2)nn1-c1ccccc1", "inactive"),
    ("COc1ccc(S(=O)(=O)N(C)C[C@@H]2OCCCC[C@H](C)Oc3ccc(NC(=O)NC(C)C)cc3C(=O)N([C@@H](C)CO)C[C@@H]2C)cc1", "inactive"),
    ("CN(CC(=O)Nc1cccc(F)c1)C(=O)CC1CCCC1", "inactive"),
    ("C/C(CC(=O)Nc1cccc(F)c1)=N\\NC(=O)C(=O)NC1CCCCC1", "active"),
    ("O=C(CSc1nnc(-c2ccncc2)o1)NCc1ccc(Cl)cc1", "active"),
    ("O=C(Nc1ccccc1)c1ccccc1Br", "inactive"),
    ("C/C=C/c1ccc2c(c1)O[C@H](CN(C)C(=O)Cc1ccncc1)[C@@H](C)CN([C@@H](C)CO)S2(=O)=O", "inactive"),
    ("CNC(=O)C[C@H]1CC[C@H]2[C@H](COc3ccc(NC(=O)c4cc(C)on4)cc3C(=O)N2C)O1", "inactive"),
    ("COc1ccc(NC(=O)Nc2cccc3c2O[C@H](CN(C)S(=O)(=O)c2cn(C)cn2)[C@H](C)CN([C@@H](C)CO)C3=O)cc1", "inactive"),
]
